# PROCEDURE TEXT: Corrosion wheel test, sweet (50-50 3% NaCl brine - Mentor, saturated CO2 only), Tables III, VI, VII
# RECORDED CONDITIONS: Table III, 4 ppm, 160° F., 24 hours
Each entry below lists one item and its recorded % Protection @ 4 ppm value.

Observe how each entry below is paired with its result.
CCCCCCCCCCCCCCCCCCSCCC[N+](C)(C)C	50%
CCCCCCCCCCCC[N+](C)(C)CCS	56%
CCCCCCCCSCC[N+](C)(C)C	29%
CCCCCCCCCCCCCCCCCCSCC[N+](C)(C)C	38%

Query string: Supply % Protection @ 4 ppm value. Item: CCCCCCCCCCCCSCCC[N+](C)(C)C
Result string: 60%

Query string: Supply measured % Protection @ 4 ppm of CCCCCCCCCCCC[N+](C)(C)CCCS in your reply.
Result string: 82%

Query string: Give me measured % Protection @ 4 ppm, please, for this molecule: CCCCCCCCCCCCCCCCCC[N+](C)(C)CCCS
Result string: 83%

Query string: Determine from records and report % Protection @ 4 ppm for CCCCCCCCSCCC[N+](C)(C)C
Result string: 81%

Query string: Give % Protection @ 4 ppm for the following molecule: CCCCCCCCCCCCCCCCCC[N+](C)(C)CCS
Result string: 62%

Query string: Give recorded % Protection @ 4 ppm. CCCCCCCC[N+](C)(C)CCCS
Result string: 83%

Query string: Specify measured % Protection @ 4 ppm for CCCCCCCCCCCCSCC[N+](C)(C)C .
Result string: 14%

---

# PROCEDURE TEXT: Inhibitor solubility test, Table V
# Type: physicochemical
# RECORDED CONDITIONS: 20% active inhibitor added at 0.5% by volume; observed initially and after 24 hours
REPORTED METRIC: Solubility in 5% NaCl brine

CCCCCCCC[N+](C)(C)CCCS	disp
CCCCCCCCCCCC[N+](C)(C)CCCS	sol
CCCCCCCCCCCCSCC[N+](C)(C)C	sol
CCCCCCCCSCC[N+](C)(C)C	sol
CCCCCCCCCCCCCCCCCCSCC[N+](C)(C)C	insol
CCCCCCCCCCCCCCCCCC[N+](C)(C)CCS	disp
CCCCCCCCCCCCCCCCCC[N+](C)(C)CCCS	insol
CCCCCCCCCCCC[N+](C)(C)CCS	disp

Query string: Kindly indicate its recorded Solubility in 5% NaCl brine. Item: CCCCCCCCCCCCCCCCCCSCCC[N+](C)(C)C
Result string: insol

Query string: Dear colleague, please send me the reported Solubility in 5% NaCl brine for CCCCCCCCCCCCSCCC[N+](C)(C)C when you can.
Result string: sol

Query string: Tell me measured Solubility in 5% NaCl brine for CCCCCCCCSCCC[N+](C)(C)C please.
Result string: sol

---

# PROCEDURE TEXT: Inhibitor solubility test, Table V
# Type: physicochemical
# RECORDED CONDITIONS: 20% active inhibitor added at 0.5% by volume; observed initially and after 24 hours
REPORTED METRIC: Solubility in aromatic naphtha

CCCCCCCCCCCCSCCC[N+](C)(C)C	disp
CCCCCCCCSCCC[N+](C)(C)C	disp
CCCCCCCCCCCCCCCCCC[N+](C)(C)CCS	sol
CCCCCCCCCCCC[N+](C)(C)CCS	disp
CCCCCCCCCCCCSCC[N+](C)(C)C	disp

Query string: Indicate its recorded Solubility in aromatic naphtha; the compound in question is CCCCCCCCCCCCCCCCCC[N+](C)(C)CCCS
Result string: disp

Query string: Hello, please tell me recorded Solubility in aromatic naphtha for this one: CCCCCCCCCCCCCCCCCCSCC[N+](C)(C)C
Result string: disp

---

This section presents compounds with their documented % Protection @ 256 ppm values.
# PROCEDURE TEXT: Corrosion wheel test, sweet (50-50 3% NaCl brine - Mentor, saturated CO2 only), Tables III, VI, VII
# RECORDED CONDITIONS: Table III, 256 ppm, 160° F., 24 hours
Write the value in % as a bare number.

Consider the reported % Protection @ 256 ppm for these compounds:
CCCCCCCCCCCCCCCCCCSCC[N+](C)(C)C [Compound 9]	84
CCCCCCCCCCCCCCCCCCSCCC[N+](C)(C)C [Compound 12]	83
CCCCCCCCCCCC[N+](C)(C)CCS [Compound 2]	81
CCCCCCCCCCCCSCCC[N+](C)(C)C [Compound 11]	84
CCCCCCCC[N+](C)(C)CCCS [Compound 4]	86
CCCCCCCCCCCC[N+](C)(C)CCCS [Compound 5]	85
CCCCCCCCCCCCSCC[N+](C)(C)C [Compound 8]	76
CCCCCCCCSCC[N+](C)(C)C [Compound 7]	65

With those in mind, consider the next compound.
Query string: Query % Protection @ 256 ppm for CCCCCCCCCCCCCCCCCC[N+](C)(C)CCS [Compound 3]
Result string: 92

---

# PROCEDURE TEXT: Corrosion wheel test, sweet-sour, all water system (3% NaCl brine, saturated CO2 + 100 ppm H2S), Table I
# RECORDED CONDITIONS: 16 ppm, 160° F., 24 hours, 3% NaCl brine only
Tick Y if % Protection @ 16 ppm is 60% or greater. Tick N if % Protection @ 16 ppm is less than 60%.

Use these answered entries as a reference point.
CCCCCCCCSCC[N+](C)(C)C [Compound 7]	N
CCCCCCCCCCCCCCCCCCSCC[N+](C)(C)C [Compound 9]	N
CCCCCCCCCCCCCCCCCCSCCC[N+](C)(C)C [Compound 12]	N

Next compound, please.
Query string: Has CCCCCCCCCCCC[N+](C)(C)CCS [Compound 2] a recorded % Protection @ 16 ppm greater than or equal to 60%?
Result string: Y

---

# PROCEDURE TEXT: Inhibitor solubility test, Table V
# Type: physicochemical
# RECORDED CONDITIONS: 20% active inhibitor added at 0.5% by volume; observed initially and after 24 hours
REPORTED METRIC: Solubility in aromatic naphtha

CCCCCCCCSCC[N+](C)(C)C	disp
CCCCCCCC[N+](C)(C)CCCS	disp
CCCCCCCCCCCC[N+](C)(C)CCCS	disp
CCCCCCCCCCCCCCCCCCSCCC[N+](C)(C)C	sol
